test system: antiserum RY725 (Rabbit antiserum obtained in Example 1-(1)); assay: ELISA system for 17β-estradiol with biotinylated estradiol derivative 2 as labeled compound (standard curve, cross-reactivity test); type: binding; details: relative to 17β-estradiol (calculated as 100%), labeled compound biotinylated estradiol derivative 2
The following compounds are shown together with reported Cross-reactivity (%) values.

COMPOUND	VALUE_UNITS	Cross-reactivity (%)
C[C@]12CCC3c4ccc(OS(=O)(=O)O)cc4CCC3C1CC[C@@H]2OS(=O)(=O)O (stereo partly drawn) [β-Estradiol 3,7-disulfate]	%	0.00
C[C@]12CC[C@H]3[C@@H](CCC4=CC(=O)CC[C@@]43C)[C@@H]1CC[C@@H]2O	%	0.28
C[C@]12CC[C@@H]3c4ccc(O[C@@H]5O[C@H](C(=O)O)[C@@H](O)[C@H](O)[C@H]5O)cc4CC[C@H]3[C@@H]1CC[C@@H]2O [β-Estradiol 3-(β-D-glucronide)]	%	37.44

* * *

system: antiserum RY725 (Rabbit antiserum obtained in Example 1-(1)); assay: ELISA system for 17β-estradiol with biotinylated estradiol derivative 2 as labeled compound (standard curve, cross-reactivity test); type: binding; conditions: relative to 17β-estradiol (calculated as 100%), labeled compound biotinylated estradiol derivative 2
Measured Cross-reactivity (%) accompanies every entry in the list below.
READOUT: Cross-reactivity (%)

COMPOUND	READOUT	MEASURED_VALUE
C[C@]12CC[C@@H]3c4ccc(O)cc4CC[C@H]3[C@@H]1CC[C@@H]2O[C@@H]1O[C@H](C(=O)O)[C@@H](O)[C@H](O)[C@H]1O [β-Estradiol 17-(β-D-glucronide)]	Cross-reactivity (%)	0.00
CC(=O)[C@H]1CC[C@H]2[C@@H]3CCC4=CC(=O)CC[C@]4(C)[C@H]3CC[C@]12C [Progesteron]	Cross-reactivity (%)	0.01
COc1cc2c(cc1O)CC[C@@H]1[C@@H]2CC[C@]2(C)[C@@H](O)CC[C@@H]12 [2-Methoxyestradiol]	Cross-reactivity (%)	1.79
C[C@]12CC[C@@H]3c4ccc(OS(=O)(=O)O)cc4CC[C@H]3[C@@H]1CC[C@@H]2O[C@@H]1O[C@H](C(=O)O)[C@@H](O)[C@H](O)[C@H]1O [β-Estradiol 3-sulfate 17-glucronide]	Cross-reactivity (%)	0.00
C[C@]12CCC(=O)C=C1CC[C@@H]1[C@@H]2[C@@H](O)C[C@]2(C=O)[C@@H](C(=O)CO)CC[C@@H]12 [d-ALDOSTERONE]	Cross-reactivity (%)	0.00
C#C[C@]1(O)CC[C@H]2[C@@H]3CCc4cc(O)ccc4[C@H]3CC[C@@]21C [Ethynylestradiol]	Cross-reactivity (%)	0.03
CC[C@H](c1ccc(O)cc1)[C@@H](CC)c1ccc(O)cc1 [Hexestrol]	Cross-reactivity (%)	0.00
C[C@]12CCC(=O)C=C1CC[C@@H]1[C@@H]2CC[C@]2(C)C(=O)CC[C@@H]12 [(+)-4-Androsteron-3,17-dione]	Cross-reactivity (%)	0.02
C[C@]12CC[C@@H]3c4ccc(O)cc4CC[C@H]3[C@@H]1C[C@@H](O)[C@@H]2O [Estriol]	Cross-reactivity (%)	0.16
CC12CCC3c4ccc(OC5OC(C(=O)O)C(O)C(O)C5O)cc4CCC3C1CCC2OS(=O)(=O)O (stereo not drawn) [β-Estradiol 3-glucronide 17-sulfate]	Cross-reactivity (%)	0.02
C[C@]12CC[C@@H]3c4ccc(O)cc4CC[C@H]3[C@@H]1CC[C@@H]2O [17β-Estradiol]	Cross-reactivity (%)	100.00
C#C[C@]1(O)CC[C@H]2[C@@H]3CCc4cc(OC)ccc4[C@H]3CC[C@@]21C [Mestranol]	Cross-reactivity (%)	0.14
